Target: Protein AF-9 (Homo sapiens, UniProt P42568)
Sequence (P42568 whole entry): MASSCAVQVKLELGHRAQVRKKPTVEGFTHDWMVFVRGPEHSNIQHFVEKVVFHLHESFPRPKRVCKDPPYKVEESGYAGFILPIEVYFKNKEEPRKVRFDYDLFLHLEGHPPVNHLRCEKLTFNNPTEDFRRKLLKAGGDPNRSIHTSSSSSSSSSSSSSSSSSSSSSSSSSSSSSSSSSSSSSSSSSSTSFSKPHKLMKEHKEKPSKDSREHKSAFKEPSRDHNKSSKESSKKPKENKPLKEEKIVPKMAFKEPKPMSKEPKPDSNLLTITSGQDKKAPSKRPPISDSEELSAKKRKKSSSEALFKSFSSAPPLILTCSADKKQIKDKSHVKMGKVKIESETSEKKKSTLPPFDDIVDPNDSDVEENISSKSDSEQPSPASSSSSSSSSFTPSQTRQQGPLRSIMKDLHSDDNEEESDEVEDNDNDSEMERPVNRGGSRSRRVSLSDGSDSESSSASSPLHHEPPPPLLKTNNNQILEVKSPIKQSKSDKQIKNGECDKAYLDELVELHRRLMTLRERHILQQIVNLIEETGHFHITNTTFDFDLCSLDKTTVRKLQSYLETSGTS
Square brackets hold non-standard residues; d marks the D form. Peptide text beside a SMILES is read from it. * marks the point of attachment. X3 = c1ccc(-c2cn(CC3CCCCC3)c([C@@H]3CCCN3*)n2)cc1; X4 = Cn1cc(-c2ccccc2)nc1[C@@H]1CCCN1*; Ala(cPent) = N[C@@H](CC1CCCC1)C(=O)O; Ala(cPr) = N[C@@H](CC1CC1)C(=O)O; Pentanoyl(4-Me) = CC(C)CCC(=O)*; Dap = NC[C@H](N)C(=O)O
observationType: pKi
# reply with the number alone; pKi is -log10 of concentration in mol/L

Query for Protein AF-9 (Homo sapiens, UniProt P42568): what pKi does the record show for CC[C@H](C)[C@H](NC(=O)[C@H](CO)NC(=O)[C@H](Cc1ccccc1)NC(=O)[C@@H]1CCCN1C(=O)[C@H](CC(C)C)NC(C)=O)C(=O)N1CCC[C@H]1C(=O)N[C@@H](CC(C)C)C(=O)N(C)C (Ac-LPFSIPL-NMe2) ?
5.25

Please do the same for CC[C@H](C)[C@H](NC(=O)[C@H](CO)NC(=O)[C@H](CC1CC1)NC(=O)[C@@H]1CCCN1C(=O)[C@H](CC(C)C)NC(C)=O)C(=O)N1CCC[C@H]1C(=O)N[C@@H](CC(C)C)C(=O)N(C)C (Ac-LP[Ala(cPr)]SIPL-NMe2) as well.
6.11

Please do the same for CC[C@H](C)[C@H](NC(=O)[C@@H]1CCCN1C(=O)[C@H](CC(C)C)NC(C)=O)C(=O)N[C@@H](CO)C(=O)N[C@@H](CC(C)C)C(=O)N1CCC[C@H]1C(=O)N[C@@H](CC(C)C)C(=O)N(C)C (Ac-LPISLPL-NMe2) as well.
6.08

Please do the same for CC(=O)N[C@@H](CC(C)C)C(=O)N1CCC[C@H]1C(=O)N[C@H](C(=O)N[C@@H](CN)C(=O)N[C@@H](CC1CCCC1)C(=O)N1CCC[C@H]1c1nc(-c2ccccc2)cn1CC1CCCCC1)C(C)C (Ac-LPV[Dap][Ala(cPent)]-X3) as well.
7.89

Please do the same for CC[C@H](C)[C@H](NC(=O)[C@@H]1CCCN1C(=O)[C@H](CC(C)C)NC(C)=O)C(=O)N[C@@H](CO)C(=O)N[C@@H](Cc1ccccc1)C(=O)N1CCC[C@H]1C(=O)N[C@@H](CC(C)C)C(=O)N(C)C (Ac-LPISFPL-NMe2) as well.
6.55

Please do the same for CC(=O)N[C@@H](CC(C)C)C(=O)N1CCC[C@H]1C(=O)N[C@H](C(=O)N[C@@H](CN)C(=O)N[C@@H](CC1CCCC1)C(=O)N1CCC[C@H]1c1nc(-c2ccccc2)cn1C)C(C)C (Ac-LPV[Dap][Ala(cPent)]-X4) as well.
7.24

Please do the same for CC[C@H](C)[C@H](NC(=O)[C@@H]1CCCN1C(=O)[C@H](CC(C)C)NC(C)=O)C(=O)N[C@@H](CO)C(=O)N[C@H](C(=O)N1CCC[C@H]1C(=O)N[C@@H](CC(C)C)C(=O)N(C)C)[C@@H](C)CC (Ac-LPISIPL-NMe2) as well.
6.52

Please do the same for CC[C@H](C)[C@H](NC(=O)[C@H](CO)NC(=O)[C@@H](NC(=O)[C@@H]1CCCN1C(=O)[C@H](CC(C)C)NC(C)=O)C(C)C)C(=O)N1CCC[C@H]1C(=O)N[C@@H](CC(C)C)C(=O)N(C)C (Ac-LPVSIPL-NMe2) as well.
6.77

Please do the same for CC(C)CCC(=O)N1CCC[C@H]1C(=O)N[C@H](C(=O)N[C@@H](CN)C(=O)N[C@@H](CC1CCCC1)C(=O)N1CCC[C@H]1c1nc(-c2ccccc2)cn1CC1CCCCC1)C(C)C ({Pentanoyl(4-Me)}-PV[Dap][Ala(cPent)]-X3) as well.
7.64

* * *

Target: UniProtKB Q03111
Sequence (Q03111 whole entry): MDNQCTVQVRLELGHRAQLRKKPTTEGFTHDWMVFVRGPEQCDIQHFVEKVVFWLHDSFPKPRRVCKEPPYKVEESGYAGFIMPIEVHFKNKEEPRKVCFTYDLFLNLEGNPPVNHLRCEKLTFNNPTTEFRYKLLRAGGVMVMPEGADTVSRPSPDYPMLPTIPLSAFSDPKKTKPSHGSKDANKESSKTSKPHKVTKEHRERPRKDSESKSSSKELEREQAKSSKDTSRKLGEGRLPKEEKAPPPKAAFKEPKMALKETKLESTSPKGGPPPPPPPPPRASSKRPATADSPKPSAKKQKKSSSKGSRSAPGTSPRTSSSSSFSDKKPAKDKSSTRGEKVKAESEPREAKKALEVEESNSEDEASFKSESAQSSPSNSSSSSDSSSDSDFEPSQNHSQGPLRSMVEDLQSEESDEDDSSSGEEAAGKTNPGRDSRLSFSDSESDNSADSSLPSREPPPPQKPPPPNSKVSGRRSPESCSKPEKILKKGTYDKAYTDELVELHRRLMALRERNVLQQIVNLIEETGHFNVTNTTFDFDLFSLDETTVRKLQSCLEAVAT
Square brackets hold non-standard residues; d marks the D form. Peptide text beside a SMILES is read from it. * marks the point of attachment. X3 = c1ccc(-c2cn(CC3CCCCC3)c([C@@H]3CCCN3*)n2)cc1; X2 = CC(C)n1cc(-c2ccccc2)nc1[C@@H]1CCCN1*; 1Nal = N[C@@H](Cc1cccc2ccccc12)C(=O)O; Ala(cPent) = N[C@@H](CC1CCCC1)C(=O)O; Ala(cPr) = N[C@@H](CC1CC1)C(=O)O; Pentanoyl(4-Me) = CC(C)CCC(=O)*; Orn = NCCC[C@H](N)C(=O)O; Dap = NC[C@H](N)C(=O)O
observationType: IC50 (µM)
# number only, unit µM dropped from output

Name the reported IC50 value associated with the compound CC[C@H](C)[C@H](NC(=O)[C@H](CO)NC(=O)[C@H](Cc1ccccc1)NC(=O)[C@@H]1CCCN1C(=O)[C@H](CC(C)C)NC(C)=O)C(=O)N1CCC[C@H]1C(=O)N[C@@H](CC(C)C)C(=O)N(C)C (Ac-LPFSIPL-NMe2)
177

Please do the same for CC[C@H](C)[C@H](NC(=O)[C@H](CO)NC(=O)[C@H](CC1CC1)NC(=O)[C@@H]1CCCN1C(=O)[C@H](CC(C)C)NC(C)=O)C(=O)N1CCC[C@H]1C(=O)N[C@@H](CC(C)C)C(=O)N(C)C (Ac-LP[Ala(cPr)]SIPL-NMe2) as well.
14.6

Please do the same for CC[C@H](C)[C@H](NC(=O)[C@@H]1CCCN1C(=O)[C@H](CC(C)C)NC(C)=O)C(=O)N[C@@H](CO)C(=O)N[C@@H](Cc1cccc2ccccc12)C(=O)N1CCC[C@H]1C(=O)N[C@@H](CC(C)C)C(=O)N(C)C (Ac-LPIS[1Nal]PL-NMe2) as well.
57.8

Please do the same for CC[C@H](C)[C@H](NC(=O)[C@@H]1CCCN1C(=O)[C@H](CC(C)C)NC(C)=O)C(=O)N[C@@H](CO)C(=O)N[C@@H](Cc1c[nH]c2ccccc12)C(=O)N1CCC[C@H]1C(=O)N[C@@H](CC(C)C)C(=O)N(C)C (Ac-LPISWPL-NMe2) as well.
7.42

Please do the same for CC[C@H](C)[C@H](NC(=O)[C@@H]1CCCN1C(=O)[C@H](CC(C)C)NC(C)=O)C(=O)N[C@@H](CO)C(=O)N[C@@H](Cc1ccccc1)C(=O)N1CCC[C@H]1C(=O)N[C@@H](CC(C)C)C(=O)N(C)C (Ac-LPISFPL-NMe2) as well.
22.7

Please do the same for CC(C)CCC(=O)N1CCC[C@H]1C(=O)N[C@H](C(=O)N[C@@H](CN)C(=O)N[C@@H](CC1CCCC1)C(=O)N1CCC[C@H]1c1nc(-c2ccccc2)cn1CC1CCCCC1)C(C)C ({Pentanoyl(4-Me)}-PV[Dap][Ala(cPent)]-X3) as well.
0.237

Please do the same for CC(=O)N[C@@H](CC(C)C)C(=O)N1CCC[C@H]1C(=O)N[C@H](C(=O)N[C@@H](CN)C(=O)N[C@@H](CC1CCCC1)C(=O)N1CCC[C@H]1c1nc(-c2ccccc2)cn1C(C)C)C(C)C (Ac-LPV[Dap][Ala(cPent)]-X2) as well.
1.22

Please do the same for CC[C@H](C)[C@H](NC(=O)[C@@H]1CCCN1C(=O)[C@H](CC(C)C)NC(C)=O)C(=O)N[C@@H](CCCN)C(=O)N[C@H](C(=O)N1CCC[C@H]1C(=O)N[C@@H](CC(C)C)C(=O)N(C)C)[C@@H](C)CC (Ac-LPI[Orn]IPL-NMe2) as well.
172
